# INHIBITION annotations
# Test system: Plasmodium berghei
# METHOD_SUMMARY: Screen against P. berghei liver stage (PbLuc), transformed with Luciferase, at 2uM
# Format: functional, HepG2
# APPLIED_CONDITIONS: tested at 2 uM
In all, about 68,000 compounds went through this assay and about 2,700 (4%) showed an effect of 50% or more. Many of the other results were omitted from the sample, so strong results are more common in it than they were.
Report only the number, with the unit % understood.

- COMPOUND: "c1cc(CN2CCC3(CC2)COC(COCC2CC2)C3)ccn1 (centres undefined)"
  INHIBITION [%]: 55.57
- COMPOUND: "CC1CN(Cc2cnn(C)c2)CCN1c1ccc2nncn2n1 (centres undefined)"
  INHIBITION [%]: 62.13
- COMPOUND: "CC1CN(Cc2nccn2C)CCN1c1ccc2nncn2n1 (centres undefined)"
  INHIBITION [%]: 3.9
- COMPOUND: "CC(C)CCn1ccc(NC(=O)N2CCCC2CN2CCOCC2)n1 (centres undefined)"
  INHIBITION [%]: -39.07
- COMPOUND: "CCc1nn(C)c2[nH]nc(NC(=O)c3cccnc3OCC(C)C)c12"
  INHIBITION [%]: 5.94

Request: # input compound: N#Cc1cccc(N2CC3(CCN(C(=O)c4cccnc4)C3)CC2=O)c1 (centres undefined) ; wanted: its INHIBITION
Result: 11.72

Request: Sample c1cc(CN2CCC3(CC2)COC(COCC2CC2)C3)cs1 (centres undefined) — what was its INHIBITION?
Result: -9.14

Request: Reported INHIBITION, compound N#Cc1cccc(N2CC3(CCN(C(=O)c4ccnnc4)C3)CC2=O)c1 (centres undefined) : ____
Result: 25.24
